# Test system: NCI-H460 lung
# Assay Method Text: NCI-60 one-dose screen, 48 h (100 = growth as untreated, 0 = no growth, -100 = all killed)
# Condition Info: 10 µM
The panel holds about 83,000 compounds, 20% with a hit somewhere; the sample as a whole holds those more often.
# label = bin(measured growth), where bins are bucket 1: < 40%; bucket 2: ≥ 40% and < 90%; bucket 3: ≥ 90%

Compound | Assigned Label
CN(C)CCCOc1cccc(NC2=C(Cl)C(=O)C(Nc3cccc(OCCCN(C)C)c3)=C(Cl)C2=O)c1 | bucket 1
Nc1cc(-c2ccncc2)c[nH]c1=O | bucket 3
COc1cc(-c2nn(-c3cccc(NC(=O)CCNc4ccc(N5CCOCC5)cc4)c3)cc2-c2ccncc2)ccc1Cl | bucket 1
CC(=O)OC1CC2C(C)(C)CCC[C@]2(C)C2=C1C(O)=C(C(C)C)C(=O)C2=O (stereo partly drawn) | bucket 1
CC(C)c1cc(N=O)cc(C(C)C)c1O | bucket 3
O=C(CN(C1CCCCC1)C1CCCCC1)Nc1ccc(S(=O)(=O)c2ccc(NC(=O)CN(C3CCCCC3)C3CCCCC3)cc2)cc1 | bucket 1
CCOC(=O)C1=CSC2=NC3=C(CCC/C3=C\c3cc(OC)c(OC)c(OC)c3)C(c3cc(OC)c(OC)c(OC)c3)N12 (stereo not drawn) | bucket 1
COc1cc2c(cc1NC(=O)C(Cl)Cl)-c1ccc(NC(=O)C(Cl)Cl)cc1C2 | bucket 1
CCOC(=O)C1=CSC2=NC3=C(CCC/C3=C\c3ccc(Cl)cc3)C(c3ccc(Cl)cc3)N12 (stereo not drawn) | bucket 3
S=c1cnc2ccccc2[nH]1 | bucket 3
Clc1ccc(Cc2ccncc2)cc1 | bucket 3
CCC1NC(=O)c2cc(S(N)(=O)=O)c(Cl)cc2N1 (stereo not drawn) | bucket 3
NC(=O)c1cccc(-n2ccc3cc(NC(=O)Nc4ccc(Cl)c(C(F)(F)F)c4)ccc32)n1 | bucket 2
CC(=O)Oc1cc(OC(C)=O)c2ccccc2c1OC(C)=O | bucket 2
N#Cc1c(-c2ccc(Cl)cc2)csc1NC(=O)Nc1ccc(Cl)c(C(F)(F)F)c1 | bucket 1
COc1ccc(C(=O)COc2cccc(/C=C3\Cc4ccccc4C3=O)c2)cc1 | bucket 3
CNS(=O)(=O)Oc1ccc(-c2sc3cc(OS(=O)(=O)NC)ccc3c2C(=O)c2ccc(OCCN3CCCCC3)cc2)cc1 | bucket 2
CCN(CC)CCOc1ccc2c(c1O)C(=O)c1ccccc1C2=O | bucket 2
CC(C)Cc1ccc([C@H](C)C(=O)O)cc1 | bucket 3
C=C1CCC2(C#N)[C@H]3[C@H](CC[C@@H]2C)[C@@H](C)C[C@@H](CC(C)(C)NC(=O)CN2CCC2=O)[C@H]13 (stereo partly drawn) | bucket 2
Cc1ccc(-n2c(C)nn3c(=O)c4c5c(sc4nc23)CN(C)CC5)cc1 | bucket 3
COc1cc(OC)c2c(=O)c(O)c(-c3ccccc3)oc2c1 | bucket 2
CCOC(=O)c1cc(C(=O)c2cc(OC)c(OC)c(OC)c2)n2nc(C)ccc12 | bucket 1
COc1cc2cc(Oc3ccc(NC(=O)c4ccccc4)cc3)c(C)nc2cc1OC | bucket 3
COc1cc(-c2csc(NC(=O)Nc3ccc(Cl)c(C(F)(F)F)c3)n2)cc(OC)c1OC | bucket 1
CC[C@@H](C(=O)[C@H](C)[C@H](O)[C@@H](C)[C@H]1O[C@H]([C@@H](CC)C(=O)N(CC)CC)CC[C@H]1C)C1O[C@]2(C=C[C@@H](O)[C@]3(CC[C@@](C)([C@H]4CC[C@](O)(CC)[C@H](C)O4)O3)O2)[C@H](C)C[C@@H]1C (stereo partly drawn) | bucket 1
CCn1cc(CNc2ccc(C(=O)Nc3ccc4ccccc4c3)cc2)c(C)n1 | bucket 2
COc1ccc2nc3cc(Cl)ccc3c(N)c2c1 | bucket 1
O=C(CCn1cnc2c(cc(-c3ccccc3)n2-c2ccccc2)c1=O)Nc1ccc(F)cc1 | bucket 2
O=S(=O)(Oc1ccc(-c2ccc3sccc3c2)cc1)c1ccccc1 | bucket 3
O=C1/C=C/[C@@H](O)[C@@H]2C[C@@H](O)C[C@H]2/C=C/CCC[C@H](C(F)(F)F)O1 | bucket 2
COc1cc(/C=C2\CCCC3C2=Nc2ccccc2NC3c2cc(OC)c(OC)c(OC)c2)cc(OC)c1OC (stereo not drawn) | bucket 1
O=C1c2c(c3c4ccccc4n(CCCCCCN4CCOCC4)c3c3[nH]c4ccccc4c23)C(=O)N1O | bucket 2
CCCN(CCC)C(=O)[C@H](CC)[C@@H]1CC[C@@H](C)[C@@H]([C@H](C)[C@@H](O)[C@@H](C)C(=O)[C@H](CC)C2O[C@]3(C=C[C@@H](O)[C@]4(CC[C@@](C)([C@H]5CC[C@](O)(CC)[C@H](C)O5)O4)O3)[C@H](C)C[C@@H]2C)O1 (stereo partly drawn) | bucket 1
